# Tested on: TO-N3 (biotin conjugate)
# measurement.description: pull-down binding Z-score (relative to library population); higher = stronger binding
# condition.summary: RNA library: Library-2
measurement.label: pull-down binding Z-score
Enter the number alone.

Sample records with pull-down binding Z-score:
UCUUGCCGAAUACCAUAAUGAAUCUGGCUUGA [SHAPE_invivo_SARS-CoV-2_Motif_27]
-0.631
GCCGGUAGCACACCUUGUAAUGGUGUUGAAGGU [SHAPE_invitro_SARS-CoV-2_Motif_416]
0.452
GUUUGCCUGUUAAUGAAUUCAAAC [hsa-mir-3129]
0.513
CAGUGUUAGCUCCAGAAGCAUUG [hsa-mir-3170]
0.171

What does the record list as pull-down binding Z-score for UUUGUGGAUUUUGAAAAGGUGCAGG [hsa-mir-15a] ?
0.277

Now the same for `UCUAAAUGAAACUCUUGUUACAAUGCCACUUGGCUAUGUAACACAUGGCUUAAAUUUGGA`
-1.16

Now the same for GCAGUAUAAUUAAUAACUAAUUACUGU [SARS-CoV-2-Conserved-Structured-36_Interval-120-237_Motif_1]
-1.03

====

# Test system: TO-3-N3-2 (biotin conjugate)
# measurement.description: pull-down binding Z-score (relative to library population); higher = stronger binding
# condition.summary: RNA library: Library-2
# Lookup of reported pull-down binding Z-score keyed by entry
Enter the number alone.

GGAGACGGGUCUUUCUC [hsa-mir-1208]
0.466
AGGUUGGUAUGCAAAAGUAUUCUACACUCCAGGGACCACCUGGUACUGGUAAGAGUCAUUUUGCUAUUGGCCU
-0.203
UGGUUUGACACAGAGCUAAAUCA [hsa-mir-5007]
0.0372
ACAGCAGUCUUACUGAAGGUUUCCUGGAAACCACGCACAUGCUGU [hsa-mir-744]
-0.233
GGAGGCAUGAAUGAGCCAUCUUUCCAAUGCCUUUC [hsa-mir-4743]
-0.332

What does the record list as pull-down binding Z-score for AAUUUUCUCUUGUCUAAAAGAAAAGAACG [hsa-mir-521-2] ?
-0.0994

Now the same for GACAUUUUAUCUUACUAAUGAUGUUUCUUUUUUAGCACAUAUUCAGUGGAUGGUUAUGUU [DMSMaPseq_invitro_SARS-CoV-2_Motif_175]
0.317

Now the same for CCGGUAAGGACGAUACUUACCUG [U1snRNP5ss-23]
-0.205

Now the same for GCUGGUCUGACUCACAUGAUGAUCUGGC [IAV_invivo_NP_5_Motif_8+IAV_invivo_NP_5_Motif_8]
-0.265

====

# Lookup of reported pull-down binding Z-score keyed by entry
# System: G-clamp-N3 (biotin conjugate)
# measurement.description: pull-down binding Z-score (relative to library population); higher = stronger binding
# condition.summary: RNA library: Library-1 (pre-miRNA loops + repeats)
Enter the number alone.

Sample records with pull-down binding Z-score:
UGUACAGGUGAGCGGAUGUUCUGCACA [hsa-mir-3120]
0.0407
CUCCGGGUUGGGG [hsa-mir-1469]
0.177
UGAAGGUCACCAUGUUCUCCUUG [hsa-mir-3187]
-0.816
CAGUAAGCCUUGACUUAUGGCUAAAUGCUUC [hsa-mir-4273]
-1.02
CCAUGUGAGUGAAGCCUGAUCAUCAUGUG [hsa-mir-8070]
-0.0843
CUUAAGUGGUUCGGGUAAAUCACUUUAA [hsa-mir-3977]
-1.04
GAAUGAAAAAAUGAAUCAUC [hsa-mir-421]
0.509
GCAGAGAAGACAGUGAGCUUGCCAGUUCUGGUUUCCAACACUUCCUUUCCUGCG [hsa-mir-3911]
-1.12

What does the record list as pull-down binding Z-score for AUUAUGUUUUGGACAUAGAAACAUAAC [hsa-mir-5688] ?
-0.841

Now the same for CAGGUGCCUCAAAGGGCAUCCCACCUG [hsa-mir-3151]
-0.124

Now the same for GCCGGGGCCUGGCGCUCCUCUACCUUGUCAGGUGACCCAGC [hsa-mir-4274]
-1.05

Now the same for AGUAGCUGGGAAUACAGGUGUGUGCCACCAUGCCUCUACAAGCUACC [hsa-mir-7851]
-0.609

Now the same for GAAGCUCCUAUAGCUCCUGUAGCUUC [hsa-mir-578]
-0.978
